conditions: in THF, 326.91 K

# SMILES_CODE, solubility (mole fraction)
rows = [
    ("COc1cc(Cc2cnc(N)nc2N)cc(OC)c1OC", 0.00296),
]

----------
conditions: in n-butanol, 318.45 K
PROPERTY_MEASURED: solubility (mole fraction)

# SMILES_CODE, REPORTED_RESULT
rows = [
    ("COc1cc(Cc2cnc(N)nc2N)cc(OC)c1OC", 0.00175),
]

----------
conditions: in n-butanol, 308.84 K

# SMILES_CODE, solubility (mole fraction)
data = [
    ("COc1cc(Cc2cnc(N)nc2N)cc(OC)c1OC", 0.00106),
]

----------
details: in THF, 333.87 K

# SMILES_CODE, solubility (mole fraction)
data = [
    ("COc1cc(Cc2cnc(N)nc2N)cc(OC)c1OC", 0.00377),
]

----------
settings: in n-butanol, 303.72 K

# SMILES_CODE, solubility (mole fraction)
rows = [
    ("COc1cc(Cc2cnc(N)nc2N)cc(OC)c1OC", 0.000844),
]

----------
settings: in isopropanol, 309.36 K

# SMILES_CODE, solubility (mole fraction)
records = [
    ("COc1cc(Cc2cnc(N)nc2N)cc(OC)c1OC", 0.000644),
]

----------
settings: in ethanol, 292.64 K
PROPERTY_MEASURED: solubility (mole fraction)

# SMILES_CODE, PROPERTY_MEASURED, REPORTED_RESULT
measured = [
    ("COc1cc(Cc2cnc(N)nc2N)cc(OC)c1OC", "solubility (mole fraction)", 0.000545),
]

----------
settings: in n-butanol, 333.73 K
PROPERTY_MEASURED: solubility (mole fraction)

# SMILES_CODE, PROPERTY_MEASURED, REPORTED_RESULT
measured = [
    ("COc1cc(Cc2cnc(N)nc2N)cc(OC)c1OC", "solubility (mole fraction)", 0.00386),
]

----------
conditions: in methanol, 319.06 K

# SMILES_CODE, solubility (mole fraction)
records = [
    ("COc1cc(Cc2cnc(N)nc2N)cc(OC)c1OC", 0.00392),
]

----------
details: in isopropanol, 319.53 K

# SMILES_CODE, solubility (mole fraction)
data = [
    ("COc1cc(Cc2cnc(N)nc2N)cc(OC)c1OC", 0.00117),
]

----------
details: in ethanol, 318.85 K

# SMILES_CODE, solubility (mole fraction)
rows = [
    ("COc1cc(Cc2cnc(N)nc2N)cc(OC)c1OC", 0.00177),
]

----------
conditions: in acetone, 276.94 K

# SMILES_CODE, solubility (mole fraction)
rows = [
    ("COc1cc(Cc2cnc(N)nc2N)cc(OC)c1OC", 0.000456),
]

----------
settings: in n-butanol, 287.96 K

# SMILES_CODE, solubility (mole fraction)
data = [
    ("COc1cc(Cc2cnc(N)nc2N)cc(OC)c1OC", 0.000359),
]

----------
details: in acetone, 309.34 K
PROPERTY_MEASURED: solubility (mole fraction)

# SMILES_CODE, PROPERTY_MEASURED, REPORTED_RESULT
records = [
    ("COc1cc(Cc2cnc(N)nc2N)cc(OC)c1OC", "solubility (mole fraction)", 0.00128),
]

----------
settings: in ethanol, 326.65 K
PROPERTY_MEASURED: solubility (mole fraction)

# SMILES_CODE, REPORTED_RESULT
data = [
    ("COc1cc(Cc2cnc(N)nc2N)cc(OC)c1OC", 0.00255),
]

----------
conditions: in n-propanol, 288.97 K

# SMILES_CODE, solubility (mole fraction)
records = [
    ("COc1cc(Cc2cnc(N)nc2N)cc(OC)c1OC", 0.000414),
]

----------
conditions: in THF, 321.34 K

# SMILES_CODE, solubility (mole fraction)
measured = [
    ("COc1cc(Cc2cnc(N)nc2N)cc(OC)c1OC", 0.00244),
]

----------
details: in sec-butanol, 290.08 K
PROPERTY_MEASURED: solubility (mole fraction)

# SMILES_CODE, PROPERTY_MEASURED, REPORTED_RESULT
records = [
    ("COc1cc(Cc2cnc(N)nc2N)cc(OC)c1OC", "solubility (mole fraction)", 0.0003),
]

----------
conditions: in ethanol, 287.25 K
PROPERTY_MEASURED: solubility (mole fraction)

# SMILES_CODE, REPORTED_RESULT
rows = [
    ("COc1cc(Cc2cnc(N)nc2N)cc(OC)c1OC", 0.000461),
]

----------
details: in isopropanol, 293.13 K

# SMILES_CODE, solubility (mole fraction)
data = [
    ("COc1cc(Cc2cnc(N)nc2N)cc(OC)c1OC", 0.000255),
]

----------
details: in sec-butanol, 298.45 K

# SMILES_CODE, solubility (mole fraction)
measured = [
    ("COc1cc(Cc2cnc(N)nc2N)cc(OC)c1OC", 0.000562),
]

----------
conditions: in n-butanol, 313.36 K

# SMILES_CODE, solubility (mole fraction)
data = [
    ("COc1cc(Cc2cnc(N)nc2N)cc(OC)c1OC", 0.00133),
]

----------
details: in n-butanol, 292.84 K

# SMILES_CODE, solubility (mole fraction)
measured = [
    ("COc1cc(Cc2cnc(N)nc2N)cc(OC)c1OC", 0.000473),
]

----------
settings: in n-butanol, 323.73 K

# SMILES_CODE, solubility (mole fraction)
rows = [
    ("COc1cc(Cc2cnc(N)nc2N)cc(OC)c1OC", 0.00235),
]

----------
conditions: in THF, 287.31 K

# SMILES_CODE, solubility (mole fraction)
data = [
    ("COc1cc(Cc2cnc(N)nc2N)cc(OC)c1OC", 0.000857),
]

----------
settings: in sec-butanol, 294.67 K
PROPERTY_MEASURED: solubility (mole fraction)

# SMILES_CODE, REPORTED_RESULT
records = [
    ("COc1cc(Cc2cnc(N)nc2N)cc(OC)c1OC", 0.000422),
]

----------
settings: in ethanol, 335.25 K
PROPERTY_MEASURED: solubility (mole fraction)

# SMILES_CODE, REPORTED_RESULT
measured = [
    ("COc1cc(Cc2cnc(N)nc2N)cc(OC)c1OC", 0.00388),
]

----------
conditions: in THF, 306.95 K
PROPERTY_MEASURED: solubility (mole fraction)

# SMILES_CODE, REPORTED_RESULT
measured = [
    ("COc1cc(Cc2cnc(N)nc2N)cc(OC)c1OC", 0.00155),
]

----------
details: in acetone, 282.12 K
PROPERTY_MEASURED: solubility (mole fraction)

# SMILES_CODE, PROPERTY_MEASURED, REPORTED_RESULT
data = [
    ("COc1cc(Cc2cnc(N)nc2N)cc(OC)c1OC", "solubility (mole fraction)", 0.00054),
]

----------
conditions: in isopropanol, 328.37 K

# SMILES_CODE, solubility (mole fraction)
data = [
    ("COc1cc(Cc2cnc(N)nc2N)cc(OC)c1OC", 0.0019),
]

----------
conditions: in sec-butanol, 323.56 K

# SMILES_CODE, solubility (mole fraction)
rows = [
    ("COc1cc(Cc2cnc(N)nc2N)cc(OC)c1OC", 0.00231),
]

----------
details: in ethanol, 323.95 K

# SMILES_CODE, solubility (mole fraction)
measured = [
    ("COc1cc(Cc2cnc(N)nc2N)cc(OC)c1OC", 0.00223),
]

----------
settings: in isopropanol, 282.82 K

# SMILES_CODE, solubility (mole fraction)
rows = [
    ("COc1cc(Cc2cnc(N)nc2N)cc(OC)c1OC", 0.000156),
]

----------
conditions: in methanol, 282.85 K

# SMILES_CODE, solubility (mole fraction)
records = [
    ("COc1cc(Cc2cnc(N)nc2N)cc(OC)c1OC", 0.001),
]

----------
conditions: in methanol, 323.53 K
PROPERTY_MEASURED: solubility (mole fraction)

# SMILES_CODE, REPORTED_RESULT
records = [
    ("COc1cc(Cc2cnc(N)nc2N)cc(OC)c1OC", 0.00471),
]

----------
conditions: in n-propanol, 314.54 K
PROPERTY_MEASURED: solubility (mole fraction)

# SMILES_CODE, REPORTED_RESULT
measured = [
    ("COc1cc(Cc2cnc(N)nc2N)cc(OC)c1OC", 0.00148),
]

----------
settings: in n-propanol, 277.35 K
PROPERTY_MEASURED: solubility (mole fraction)

# SMILES_CODE, PROPERTY_MEASURED, REPORTED_RESULT
records = [
    ("COc1cc(Cc2cnc(N)nc2N)cc(OC)c1OC", "solubility (mole fraction)", 0.000278),
]
